- measured_on: T1, human NK3R (human NKB receptor) (human, UniProt P29371 1-465)
- T1 sequence (looked up): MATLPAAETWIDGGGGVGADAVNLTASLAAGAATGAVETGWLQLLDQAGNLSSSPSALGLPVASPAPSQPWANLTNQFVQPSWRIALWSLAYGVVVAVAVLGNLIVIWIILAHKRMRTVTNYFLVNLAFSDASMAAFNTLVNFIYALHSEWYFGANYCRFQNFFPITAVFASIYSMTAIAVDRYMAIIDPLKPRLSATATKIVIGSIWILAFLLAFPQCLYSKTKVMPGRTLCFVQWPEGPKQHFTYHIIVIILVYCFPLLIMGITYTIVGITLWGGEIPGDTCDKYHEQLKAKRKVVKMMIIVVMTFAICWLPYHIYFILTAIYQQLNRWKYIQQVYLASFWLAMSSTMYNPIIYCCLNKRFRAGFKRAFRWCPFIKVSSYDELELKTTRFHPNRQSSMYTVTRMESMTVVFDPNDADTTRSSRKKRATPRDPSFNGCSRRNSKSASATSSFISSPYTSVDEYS
- test: cell-based or functional assay
*1 amine or outer side, *2 acyl side, *3 side chain or, on linkers, in order; H or OH if unused. Where no end group is shown, it is not given here. [ ]: non-standard residue; d: D form. Suc = O=C(CCC(=O)[*:2])[*:1]; NMeV = CN[C@H](C(=O)O)C(C)C
Labelling field: enter true if recorded EC50, CRE-Luc to follow PKA activation, transfected COS-7 cells is less than 7 nM. Enter false if it equals or exceeds that cut-off.

Query block: Answer whether the binder YNDIDYDSFVGLM-NH2 [Zebrafish Tac3f peptide, neurokinin F (YNDIDYDSFVGLM-NH2)] has EC50, CRE-Luc to follow PKA activation, transfected COS-7 cells strictly less than 7 nM
Result block: true

Query block: Consider EMHDIFVGLM-NH2 [Zebrafish Tac3a peptide, neurokinin Ba (EMHDIFVGLM-NH2)] . Does its EC50, CRE-Luc to follow PKA activation, transfected COS-7 cells lie strictly below 7 nM?
Result block: true

Query block: Please state whether EC50, CRE-Luc to follow PKA activation, transfected COS-7 cells is below 7 nM for XDSFXGLM (N-terminal succinyl (Succ) on Asp; N(Me)Val; C-terminal amide (-NH2)) [NKF-analog (Succ-Asp-Ser-Phe-N(Me)Val-Gly-Leu-Met-NH2)]
Result block: false

Query block: Item STGINREAHLPFRPNMNDIFVGLL-NH2 [Zebrafish Tac3b peptide, neurokinin Bb (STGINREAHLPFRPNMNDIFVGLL-NH2)] : EC50, CRE-Luc to follow PKA activation, transfected COS-7 cells beneath 7 nM, strictly?
Result block: false

Query block: Item Suc-DIF[NMeV]GLM-NH2 (SMILES CC[C@H](C)[C@H](NC(=O)[C@H](CC(=O)O)NC(=O)CCC(=O)O)C(=O)N[C@@H](Cc1ccccc1)C(=O)N(C)[C@H](C(=O)NCC(=O)N[C@@H](CC(C)C)C(=O)N[C@@H](CCSC)C(N)=O)C(C)C) [NKBa-analog (Succ-Asp-Ile-Phe-N(Me)Val-Gly-Leu-Met-NH2)] : EC50, CRE-Luc to follow PKA activation, transfected COS-7 cells beneath 7 nM, strictly?
Result block: false

Next up:
Query block: Decide: EC50, CRE-Luc to follow PKA activation, transfected COS-7 cells of Suc-DF[NMeV]GLM-NH2 [NKBb-analog (Succ-Asp-Phe-N(Me)Val-Gly-Leu-Met-NH2)] strictly below 7 nM?
Result block: true
